# test_context: in acetone, 308.15 K
measure_name: solubility (mole fraction)
Simply state the number, no unit and no words.

solubility (mole fraction) recorded for this compound, `CC(=O)N[C@@H](CCC(N)=O)C(=O)O` , is 0.000342

====

# test_context: in n-butanol, 288.15 K
measure_name: solubility (mole fraction)
Simply state the number, no unit and no words.

solubility (mole fraction) recorded for this compound, `CC(=O)N[C@@H](CCC(N)=O)C(=O)O` , is 0.000102

====

# test_context: in n-butanol, 283.15 K
measure_name: solubility (mole fraction)
Simply state the number, no unit and no words.

solubility (mole fraction) recorded for this compound, `CC(=O)N[C@@H](CCC(N)=O)C(=O)O` , is 8.9e-05

====

# test_context: in methyl acetate, 283.15 K
measure_name: solubility (mole fraction)
Simply state the number, no unit and no words.

solubility (mole fraction) recorded for this compound, `CC(=O)N[C@@H](CCC(N)=O)C(=O)O` , is 0.000141

====

# test_context: in acetonitrile, 323.15 K
measure_name: solubility (mole fraction)

solubility (mole fraction) recorded for this compound, `CC(=O)N[C@@H](CCC(N)=O)C(=O)O` , is 0.000217

====

# test_context: in ethyl acetate, 283.15 K
measure_name: solubility (mole fraction)
Simply state the number, no unit and no words.

solubility (mole fraction) recorded for this compound, `CC(=O)N[C@@H](CCC(N)=O)C(=O)O` , is 0.000101

====

# test_context: in n-butanol, 323.15 K
measure_name: solubility (mole fraction)

solubility (mole fraction) recorded for this compound, `CC(=O)N[C@@H](CCC(N)=O)C(=O)O` , is 0.000516

====

# test_context: in n-butanol, 298.15 K
measure_name: solubility (mole fraction)

solubility (mole fraction) recorded for this compound, `CC(=O)N[C@@H](CCC(N)=O)C(=O)O` , is 0.000193

====

# test_context: in water, 303.15 K
measure_name: solubility (mole fraction)
Simply state the number, no unit and no words.

solubility (mole fraction) recorded for this molecule, `CC(=O)N[C@@H](CCC(N)=O)C(=O)O` , is 0.00358

====

# test_context: in sec-butanol, 283.15 K
measure_name: solubility (mole fraction)

solubility (mole fraction) recorded for this compound, `CC(=O)N[C@@H](CCC(N)=O)C(=O)O` , is 0.000347

====

# test_context: in water, 298.15 K
measure_name: solubility (mole fraction)

solubility (mole fraction) recorded for this molecule, `CC(=O)N[C@@H](CCC(N)=O)C(=O)O` , is 0.00297

====

# test_context: in acetone, 323.15 K
measure_name: solubility (mole fraction)
Simply state the number, no unit and no words.

solubility (mole fraction) recorded for this compound, `CC(=O)N[C@@H](CCC(N)=O)C(=O)O` , is 0.000475

====

# test_context: in acetone, 303.15 K
measure_name: solubility (mole fraction)
Simply state the number, no unit and no words.

solubility (mole fraction) recorded for this compound, `CC(=O)N[C@@H](CCC(N)=O)C(=O)O` , is 0.000312

====

# test_context: in ethyl acetate, 298.15 K
measure_name: solubility (mole fraction)
Simply state the number, no unit and no words.

solubility (mole fraction) recorded for this compound, `CC(=O)N[C@@H](CCC(N)=O)C(=O)O` , is 0.000222

====

# test_context: in water, 293.15 K
measure_name: solubility (mole fraction)
Simply state the number, no unit and no words.

solubility (mole fraction) recorded for this compound, `CC(=O)N[C@@H](CCC(N)=O)C(=O)O` , is 0.00265

====

# test_context: in methyl acetate, 303.15 K
measure_name: solubility (mole fraction)

solubility (mole fraction) recorded for this compound, `CC(=O)N[C@@H](CCC(N)=O)C(=O)O` , is 0.000277

====

# test_context: in methanol, 283.15 K
measure_name: solubility (mole fraction)
Simply state the number, no unit and no words.

solubility (mole fraction) recorded for this compound, `CC(=O)N[C@@H](CCC(N)=O)C(=O)O` , is 0.000974

====

# test_context: in ethanol, 298.15 K
measure_name: solubility (mole fraction)
Simply state the number, no unit and no words.

solubility (mole fraction) recorded for this compound, `CC(=O)N[C@@H](CCC(N)=O)C(=O)O` , is 0.000543

====

# test_context: in 2-butanone, 318.15 K
measure_name: solubility (mole fraction)
Simply state the number, no unit and no words.

solubility (mole fraction) recorded for this compound, `CC(=O)N[C@@H](CCC(N)=O)C(=O)O` , is 0.000606

====

# test_context: in water, 323.15 K
measure_name: solubility (mole fraction)
Simply state the number, no unit and no words.

solubility (mole fraction) recorded for this compound, `CC(=O)N[C@@H](CCC(N)=O)C(=O)O` , is 0.00767

====

# test_context: in acetone, 298.15 K
measure_name: solubility (mole fraction)
Simply state the number, no unit and no words.

solubility (mole fraction) recorded for this compound, `CC(=O)N[C@@H](CCC(N)=O)C(=O)O` , is 0.000275

====

# test_context: in 2-butanone, 288.15 K
measure_name: solubility (mole fraction)
Simply state the number, no unit and no words.

solubility (mole fraction) recorded for this molecule, `CC(=O)N[C@@H](CCC(N)=O)C(=O)O` , is 0.000395

====

# test_context: in methyl acetate, 318.15 K
measure_name: solubility (mole fraction)
Simply state the number, no unit and no words.

solubility (mole fraction) recorded for this compound, `CC(=O)N[C@@H](CCC(N)=O)C(=O)O` , is 0.000401

====

# test_context: in 2-butanone, 308.15 K
measure_name: solubility (mole fraction)
Simply state the number, no unit and no words.

solubility (mole fraction) recorded for this molecule, `CC(=O)N[C@@H](CCC(N)=O)C(=O)O` , is 0.000516

====

# test_context: in ethanol, 323.15 K
measure_name: solubility (mole fraction)
Simply state the number, no unit and no words.

solubility (mole fraction) recorded for this molecule, `CC(=O)N[C@@H](CCC(N)=O)C(=O)O` , is 0.000935

====

# test_context: in ethyl acetate, 308.15 K
measure_name: solubility (mole fraction)
Simply state the number, no unit and no words.

solubility (mole fraction) recorded for this molecule, `CC(=O)N[C@@H](CCC(N)=O)C(=O)O` , is 0.000323

====

# test_context: in methyl acetate, 293.15 K
measure_name: solubility (mole fraction)

solubility (mole fraction) recorded for this molecule, `CC(=O)N[C@@H](CCC(N)=O)C(=O)O` , is 0.000201

====

# test_context: in ethanol, 318.15 K
measure_name: solubility (mole fraction)
Simply state the number, no unit and no words.

solubility (mole fraction) recorded for this compound, `CC(=O)N[C@@H](CCC(N)=O)C(=O)O` , is 0.000845

====

# test_context: in isobutanol, 308.15 K
measure_name: solubility (mole fraction)

solubility (mole fraction) recorded for this molecule, `CC(=O)N[C@@H](CCC(N)=O)C(=O)O` , is 0.000527

====

# test_context: in ethanol, 313.15 K
measure_name: solubility (mole fraction)
Simply state the number, no unit and no words.

solubility (mole fraction) recorded for this molecule, `CC(=O)N[C@@H](CCC(N)=O)C(=O)O` , is 0.000768

====

# test_context: in n-butanol, 313.15 K
measure_name: solubility (mole fraction)
Simply state the number, no unit and no words.

solubility (mole fraction) recorded for this compound, `CC(=O)N[C@@H](CCC(N)=O)C(=O)O` , is 0.000372

====

# test_context: in sec-butanol, 293.15 K
measure_name: solubility (mole fraction)
Simply state the number, no unit and no words.

solubility (mole fraction) recorded for this compound, `CC(=O)N[C@@H](CCC(N)=O)C(=O)O` , is 0.000452

====

# test_context: in ethyl acetate, 303.15 K
measure_name: solubility (mole fraction)
Simply state the number, no unit and no words.

solubility (mole fraction) recorded for this compound, `CC(=O)N[C@@H](CCC(N)=O)C(=O)O` , is 0.000271

====

# test_context: in acetone, 283.15 K
measure_name: solubility (mole fraction)
Simply state the number, no unit and no words.

solubility (mole fraction) recorded for this compound, `CC(=O)N[C@@H](CCC(N)=O)C(=O)O` , is 0.00016

====

# test_context: in acetone, 313.15 K
measure_name: solubility (mole fraction)
Simply state the number, no unit and no words.

solubility (mole fraction) recorded for this molecule, `CC(=O)N[C@@H](CCC(N)=O)C(=O)O` , is 0.000389

====

# test_context: in sec-butanol, 288.15 K
measure_name: solubility (mole fraction)

solubility (mole fraction) recorded for this compound, `CC(=O)N[C@@H](CCC(N)=O)C(=O)O` , is 0.000395

====

# test_context: in acetonitrile, 308.15 K
measure_name: solubility (mole fraction)
Simply state the number, no unit and no words.

solubility (mole fraction) recorded for this compound, `CC(=O)N[C@@H](CCC(N)=O)C(=O)O` , is 0.000179
